Where do the numbers come from? From patent US4220644A.

- Test system: Kleb. pneumo. SK 1200
- assay-details: MIC in vitro (Table 1), Kleb. pneumo. SK 1200
- Type: cell-based
readout-name: MIC (µg/mL)

CN(C)C(=O)Cn1nnnc1SCC1=C(C(=O)O)N2C(=O)C(NC(=O)[C@H](N)c3ccc(O)cc3)C2SC1 (stereo partly shown) [IX] = 6.3
O=C(O)CCn1nnnc1SCC1=C(C(=O)O)N2C(=O)C(NC(=O)[C@H](O)c3ccccc3)[C@H]2SC1 (stereo partly shown) [VIII] = 0.8
CNC(=O)Cn1nnnc1SCC1=C(C(=O)O)N2C(=O)C(NC(=O)[C@H](O)c3ccccc3)[C@H]2SC1 (stereo partly shown) [III] = 3.1
NC(=O)Cn1nnnc1SCC1=C(C(=O)O)N2C(=O)C(NC(=O)[C@H](O)c3ccccc3)[C@H]2SC1 (stereo partly shown) [V] = 0.4

----------
- System: Entero. aerog. ATCC 13048
- assay-details: MIC in vitro (Table 1), Entero. aerog. ATCC 13048
- Format: cell-based
- particulars: in vitro, Entero. aerog. ATCC 13048; read-out: MIC
// reported MIC for each item listed
readout-name: MIC

NC(=O)Cn1nnnc1SCC1=C(C(=O)O)N2C(=O)C(NC(=O)CSC(F)(F)F)[C@H]2SC1 (some centres unmarked) = 1.6 µg/mL
N[C@@H](C(=O)NC1C(=O)N2C(C(=O)O)=C(CSc3nnnn3CC(=O)O)CS[C@H]12)c1ccc(O)cc1 (some centres unmarked) = 25 µg/mL
O=C(O)CCCCCn1nnnc1SCC1=C(C(=O)O)N2C(=O)C(NC(=O)[C@H](O)c3ccccc3)[C@H]2SC1 (some centres unmarked) = 6.3 µg/mL
NC(=O)Cn1nnnc1SCC1=C(C(=O)O)N2C(=O)C(NC(=O)[C@H](N)c3ccc(O)cc3)[C@H]2SC1 (some centres unmarked) = 6.3 µg/mL
NC(=O)Cn1nnnc1SCC1=C(C(=O)O)N2C(=O)C(NC(=O)[C@H](O)c3ccccc3)[C@H]2SC1 (some centres unmarked) = 1.6 µg/mL

----------
- Test system: Proteus morgani 179
- assay-details: MIC in vitro (Table 1), Proteus morgani 179
- Type: cell-based
- particulars: read-out: MIC
// reported MIC for each item listed
readout-name: MIC (µg/mL)

O=C(O)Cn1nnnc1SCC1=C(C(=O)O)N2C(=O)C(NC(=O)CSC(F)(F)F)[C@H]2SC1 (stereo partly shown) [XVIII] = 200
O=C(O)CCn1nnnc1SCC1=C(C(=O)O)N2C(=O)C(NC(=O)[C@H](O)c3ccccc3)[C@H]2SC1 (stereo partly shown) [VIII] = 6.3
NC(=O)Cn1nnnc1SCC1=C(C(=O)O)N2C(=O)C(NC(=O)[C@H](N)c3ccc(O)cc3)[C@H]2SC1 (stereo partly shown) [VI] = 50
NC(=O)CCn1nnnc1SCC1=C(C(=O)O)N2C(=O)C(NC(=O)[C@H](O)c3ccccc3)[C@H]2SC1 (stereo partly shown) [VII] = 1.6
Cn1nnnc1SCC1=C(C(=O)O)N2C(=O)C(NC(=O)C(O)c3ccccc3)[C@H]2SC1 (stereo partly shown) [cephamandole, reference compound] = 1.3
NC(=O)CCCn1nnnc1SCC1=C(C(=O)O)N2C(=O)C(NC(=O)[C@H](O)c3ccccc3)[C@H]2SC1 (stereo partly shown) [XI] = 0.8

----------
// reported MIC for each item listed
- Test system: Salmonella ATCC 12176
- assay-details: MIC in vitro (Table 1), Salmonella ATCC 12176
- Assay type: cell-based
- particulars: Salmonella, ATCC12176, in vitro, read-out: MIC
readout-name: MIC (µg/mL)

NC(=O)CCn1nnnc1SCC1=C(C(=O)O)N2C(=O)C(NC(=O)[C@H](O)c3ccccc3)[C@H]2SC1 (stereo partly shown) = 0.2
NC(=O)CCCCCn1nnnc1SCC1=C(C(=O)O)N2C(=O)C(NC(=O)[C@H](O)c3ccccc3)[C@H]2SC1 (stereo partly shown) = 3.1
NC(=O)CCCn1nnnc1SCC1=C(C(=O)O)N2C(=O)C(NC(=O)[C@H](O)c3ccccc3)[C@H]2SC1 (stereo partly shown) = 0.8
NC(=O)CCn1nnnc1SCC1=C(C(=O)O)N2C(=O)C(NC(=O)CSC(F)(F)F)[C@H]2SC1 (stereo partly shown) = 0.4
O=C(O)Cn1nnnc1SCC1=C(C(=O)O)N2C(=O)C(NC(=O)CSC(F)(F)F)[C@H]2SC1 (stereo partly shown) = 0.8
CNC(=O)Cn1nnnc1SCC1=C(C(=O)O)N2C(=O)C(NC(=O)[C@H](O)c3ccccc3)[C@H]2SC1 (stereo partly shown) = 0.8
NC(=O)Cn1nnnc1SCC1=C(C(=O)O)N2C(=O)C(NC(=O)CSC(F)(F)F)[C@H]2SC1 (stereo partly shown) = 0.4
O=C(O)CCn1nnnc1SCC1=C(C(=O)O)N2C(=O)C(NC(=O)[C@H](O)c3ccccc3)[C@H]2SC1 (stereo partly shown) = 0.8
NC(=O)CCCn1nnnc1SCC1=C(C(=O)O)N2C(=O)C(NC(=O)CSC(F)(F)F)[C@H]2SC1 (stereo partly shown) = 0.2
NC(=O)Cn1nnnc1SCC1=C(C(=O)O)N2C(=O)C(NC(=O)[C@H](N)c3ccc(O)cc3)[C@H]2SC1 (stereo partly shown) = 1.6
NC(=O)Cn1nnnc1SCC1=C(C(=O)O)N2C(=O)C(NC(=O)[C@H](O)c3ccccc3)[C@H]2SC1 (stereo partly shown) = 0.8
CN(C)C(=O)Cn1nnnc1SCC1=C(C(=O)O)N2C(=O)C(NC(=O)[C@H](O)c3ccccc3)C2SC1 (stereo partly shown) = 3.1
CN(C)C(=O)Cn1nnnc1SCC1=C(C(=O)O)N2C(=O)C(NC(=O)[C@H](N)c3ccc(O)cc3)C2SC1 (stereo partly shown) = 3.1
NC(=O)CCn1nnnc1SCC1=C(C(=O)O)N2C(=O)C(NC(=O)[C@H](N)c3ccc(O)cc3)[C@H]2SC1 (stereo partly shown) = 0.8
O=C(O)CCn1nnnc1SCC1=C(C(=O)O)N2C(=O)C(NC(=O)CSC(F)(F)F)[C@H]2SC1 (stereo partly shown) = 0.4
O=C(O)CCCn1nnnc1SCC1=C(C(=O)O)N2C(=O)C(NC(=O)[C@H](O)c3ccccc3)[C@H]2SC1 (stereo partly shown) = 0.4
O=C(O)Cn1nnnc1SCC1=C(C(=O)O)N2C(=O)C(NC(=O)[C@H](O)c3ccccc3)[C@H]2SC1 (stereo partly shown) = 1.6
N[C@@H](C(=O)NC1C(=O)N2C(C(=O)O)=C(CSc3nnnn3CC(=O)O)CS[C@H]12)c1ccc(O)cc1 (stereo partly shown) = 1.6
O=C(O)CCCCCn1nnnc1SCC1=C(C(=O)O)N2C(=O)C(NC(=O)[C@H](O)c3ccccc3)[C@H]2SC1 (stereo partly shown) = 1.6

----------
// reported MIC for each item listed
- Test system: Entero. cloacae HH 31254
- assay-details: MIC in vitro (Table 1), Entero. cloacae HH 31254
- Assay type: cell-based
- particulars: Enterobacter cloacae, HH31254, in vitro, Entero. cloacae HH 31254; read-out: MIC
readout-name: MIC (mg/L)

NC(=O)CCCn1nnnc1SCC1=C(C(=O)O)N2C(=O)C(NC(=O)CSC(F)(F)F)[C@H]2SC1 (stereo partly shown) = 0.8
O=C(O)CCCn1nnnc1SCC1=C(C(=O)O)N2C(=O)C(NC(=O)[C@H](O)c3ccccc3)[C@H]2SC1 (stereo partly shown) = 0.8
NC(=O)Cn1nnnc1SCC1=C(C(=O)O)N2C(=O)C(NC(=O)[C@H](O)c3ccccc3)[C@H]2SC1 (stereo partly shown) = 0.8
CN(C)C(=O)Cn1nnnc1SCC1=C(C(=O)O)N2C(=O)C(NC(=O)[C@H](O)c3ccccc3)C2SC1 (stereo partly shown) = 1.6
O=C(O)Cn1nnnc1SCC1=C(C(=O)O)N2C(=O)C(NC(=O)[C@H](O)c3ccccc3)[C@H]2SC1 (stereo partly shown) = 0.8
N[C@@H](C(=O)NC1C(=O)N2C(C(=O)O)=C(CSc3nnnn3CC(=O)O)CS[C@H]12)c1ccc(O)cc1 (stereo partly shown) = 1.6
NC(=O)CCCCCn1nnnc1SCC1=C(C(=O)O)N2C(=O)C(NC(=O)[C@H](O)c3ccccc3)[C@H]2SC1 (stereo partly shown) = 1.6
O=C(O)CCn1nnnc1SCC1=C(C(=O)O)N2C(=O)C(NC(=O)CSC(F)(F)F)[C@H]2SC1 (stereo partly shown) = 0.8
NC(=O)CCn1nnnc1SCC1=C(C(=O)O)N2C(=O)C(NC(=O)CSC(F)(F)F)[C@H]2SC1 (stereo partly shown) = 0.4
Cn1nnnc1SCC1=C(C(=O)O)N2C(=O)C(NC(=O)C(O)c3ccccc3)[C@H]2SC1 (stereo partly shown) [cephamandole, reference compound] = 0.7
NC(=O)Cn1nnnc1SCC1=C(C(=O)O)N2C(=O)C(NC(=O)CSC(F)(F)F)[C@H]2SC1 (stereo partly shown) = 0.8
NC(=O)CCn1nnnc1SCC1=C(C(=O)O)N2C(=O)C(NC(=O)[C@H](O)c3ccccc3)[C@H]2SC1 (stereo partly shown) = 1.6
O=C(O)Cn1nnnc1SCC1=C(C(=O)O)N2C(=O)C(NC(=O)CSC(F)(F)F)[C@H]2SC1 (stereo partly shown) = 3
